Taken from PubChem BioAssay AID540322.

// endpoint IC50 / system Potassium channel subfamily K member 9 (Homo sapiens)

The following molecules have reported results that may help.
[
  {
    "Molecule": "COc1ccccc1-c1n[nH]c(=S)n1C(C)C1CC2CCC1C2 (stereo not drawn)",
    "IC50": "0.84 µM"
  },
  {
    "Molecule": "Cc1cccc(C(=O)Nc2cccc(NC(=O)c3ccccc3OC(F)(F)F)c2)c1",
    "IC50": "1.05 µM"
  },
  {
    "Molecule": "O=C(Nc1cccc(NC(=O)c2ccccn2)c1)c1ccccc1",
    "IC50": "5.37 µM"
  },
  {
    "Molecule": "Cc1cccc(C(=O)Nc2cccc(NC(=O)c3ccccc3Cl)c2)c1",
    "IC50": "19.8 µM"
  },
  {
    "Molecule": "CCOc1ccccc1NC(=O)c1cccc(NC(=O)c2cccc(C)c2)c1",
    "IC50": "0.29 µM"
  }
]

### Prompt What measured IC50 goes with CC(C1CC2CCC1C2)n1c(C2CCOC2)n[nH]c1=S (stereo not drawn) ?
### Response 10.3 µM

### Prompt What measured IC50 goes with "Cc1cccc(C(=O)Nc2cccc(NC(=O)c3ccccc3C(F)(F)F)c2)c1" ?
### Response 12.9 µM

### Prompt What measured IC50 goes with "CCOc1ccccc1NC(=O)c1cccc(NC(=O)C2CC2)c1" ?
### Response 10.2 µM

### Prompt What measured IC50 goes with "CCOc1ccccc1NC(=O)c1cccc(NC(=O)c2ccccc2C)c1" ?
### Response 4.29 µM

### Prompt What measured IC50 goes with "Cc1cccc(C(=O)Nc2cccc(NC(=O)c3ccccc3)c2)c1" ?
### Response 1.82 µM

### Prompt What measured IC50 goes with "CCOc1ccccc1NC(=O)c1cccc(NC(=O)c2ccccc2)c1" ?
### Response 1.43 µM

### Prompt What measured IC50 goes with "CCOc1ccccc1NC(=O)c1cccc(NC(=O)c2ccc(C)cc2)c1" ?
### Response 14.7 µM

### Prompt What measured IC50 goes with "COc1cccc(OC)c1C(=O)Nc1cccc(NC(=O)c2cccc(C)c2)c1" ?
### Response 19.2 µM
